Entry source: patent US10316035B2

TARGET OR SYSTEM: myeloperoxidase (MPO) (Homo sapiens, UniProt P05164)
Sequence (P05164 49-745): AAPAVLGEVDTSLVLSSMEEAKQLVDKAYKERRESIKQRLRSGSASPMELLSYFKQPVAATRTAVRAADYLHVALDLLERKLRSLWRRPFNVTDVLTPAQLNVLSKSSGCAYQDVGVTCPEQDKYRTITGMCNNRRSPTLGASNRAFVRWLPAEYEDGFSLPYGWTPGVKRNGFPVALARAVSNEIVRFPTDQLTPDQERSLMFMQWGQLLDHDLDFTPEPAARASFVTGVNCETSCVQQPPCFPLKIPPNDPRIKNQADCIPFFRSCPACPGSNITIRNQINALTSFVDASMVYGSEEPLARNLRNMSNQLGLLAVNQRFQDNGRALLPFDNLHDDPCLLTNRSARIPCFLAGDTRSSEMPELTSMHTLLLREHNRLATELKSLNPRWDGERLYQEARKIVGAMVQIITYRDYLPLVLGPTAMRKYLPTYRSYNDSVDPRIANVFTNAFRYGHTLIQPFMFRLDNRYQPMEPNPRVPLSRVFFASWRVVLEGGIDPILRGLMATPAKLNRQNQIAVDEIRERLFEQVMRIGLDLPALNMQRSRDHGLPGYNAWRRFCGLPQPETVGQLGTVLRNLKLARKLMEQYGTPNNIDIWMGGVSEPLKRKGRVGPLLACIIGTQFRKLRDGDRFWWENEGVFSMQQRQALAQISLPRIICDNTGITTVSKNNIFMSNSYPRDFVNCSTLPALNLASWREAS
TEST: MPO peroxidation assay (Amplex Red assay)
Format: biochemical
RUN CONDITIONS: MPO peroxidation, potency range class; read-out: Amplex Red IC50
Exercise: state measured IC50 for each of the compounds provided.

Consider the compound `Nc1cc(OCc2ccccc2OCC(=O)NCC2CC2)c2nn[nH]c2n1` and give its measured IC50.
101 to 999 nM

Consider next the compound `Nc1cc(OCc2ccc(-c3cccc(Cl)c3)cc2)c2nn[nH]c2n1` in the same way.
1000 to 10000 nM

Consider next the compound `N#Cc1cc(-c2ccc(C3CC3)nc2)ccc1COc1cc(N)nc2[nH]nnc12` in the same way.
1 to 100 nM

Consider next the compound `Cc1c(COc2cc(N)nc3[nH]nnc23)cccc1-c1cncc(F)c1` in the same way.
1 to 100 nM

Consider next the compound `Nc1cc(OCc2ccc(C(=O)NC3CCC3)cc2Cl)c2nn[nH]c2n1` in the same way.
1 to 100 nM

Consider next the compound `NC(=O)c1cccc(COc2cc(N)nc3[nH]nnc23)c1` in the same way.
101 to 999 nM

Consider next the compound `Nc1cc(OCc2ccc(-n3cccn3)cc2OC(F)(F)F)c2nn[nH]c2n1` in the same way.
1 to 100 nM

Consider next the compound `Nc1cc(OCc2cc(C(=O)NCc3ccccc3)ccc2F)c2nn[nH]c2n1` in the same way.
1 to 100 nM

Consider next the compound CC(O)CNC(=O)c1ccc(Cl)c(COc2cc(N)nc3[nH]nnc23)c1 (stereo not drawn) in the same way.
1 to 100 nM

====

TARGET OR SYSTEM: myeloperoxidase (MPO) (Homo sapiens)
TEST: MPO peroxidation assay (Amplex Red assay)
Assay type: biochemical
RUN CONDITIONS: MPO peroxidation, potency range class; read-out: Amplex Red IC50
pIC50: −log10 of the molar value.
PROPERTY MEASURED: pIC50

Consider the compound `CCOc1ccc(Cl)cc1COc1cc(N)nc2[nH]nnc12` and give its measured pIC50.
7.00 to 9.00

Consider next the compound `CN(C(=O)c1ccc(COc2cc(N)nc3[nH]nnc23)c(Cl)c1)C1CCCCC1` in the same way.
6.00 to 7.00

Consider next the compound `Nc1cc(OCc2c(F)cc(-c3ccc(N4CCNCC4)nc3)cc2F)c2nn[nH]c2n1` in the same way.
7.00 to 9.00

Consider next the compound `N#Cc1ccccc1COc1cc(N)nc2[nH]nnc12` in the same way.
7.00 to 9.00

Consider next the compound `CN(Cc1ccccc1)C(=O)c1ccc(COc2cc(N)nc3[nH]nnc23)c(Cl)c1` in the same way.
7.00 to 9.00

Consider next the compound `Nc1cc(OCc2ccc(-n3cnc(CO)c3)cc2OC(F)(F)F)c2nn[nH]c2n1` in the same way.
7.00 to 9.00

Consider next the compound `Cc1c(COc2cc(N)nc3[nH]nnc23)cccc1-c1ccccc1` in the same way.
7.00 to 9.00

Consider next the compound `COc1cccc(COc2cc(N)nc3[nH]nnc23)c1` in the same way.
6.00 to 7.00

Consider next the compound `Nc1cc(OCc2cccc(-c3ccc(-c4ccn[nH]4)cc3)c2)c2nn[nH]c2n1` in the same way.
7.00 to 9.00

Consider next the compound `Nc1cc(OCc2cccc(SC(F)(F)F)c2)c2nn[nH]c2n1` in the same way.
7.00 to 9.00

Consider next the compound `N#Cc1ccc(-c2cccc(COc3cc(N)nc4[nH]nnc34)c2)cc1` in the same way.
7.00 to 9.00

Consider next the compound `COc1ccc(-n2cncn2)cc1COc1cc(N)nc2[nH]nnc12` in the same way.
7.00 to 9.00

Consider next the compound `COc1c(COc2cc(N)nc3[nH]nnc23)cccc1-c1cccc(F)c1` in the same way.
6.00 to 7.00

Consider next the compound `CN(C)c1ncc(-c2ccc(COc3cc(N)nc4[nH]nnc34)c(C#N)c2)cn1` in the same way.
7.00 to 9.00

Consider next the compound `Nc1cc(OCc2ccc(-c3ccc(OC(F)(F)F)cc3)cc2)c2nn[nH]c2n1` in the same way.
6.00 to 7.00

Consider next the compound Nc1cc(OCc2cc(C(=O)N3CCC(Cc4ccccc4)C3)ccc2Cl)c2nn[nH]c2n1 (stereo not shown) in the same way.
6.00 to 7.00

Consider next the compound `COc1c(F)cc(F)cc1-c1ccc(COc2cc(N)nc3[nH]nnc23)cc1` in the same way.
6.00 to 7.00

Consider next the compound `N#Cc1cc(-c2ccc(C(F)(F)F)nc2)ccc1COc1cc(N)nc2[nH]nnc12` in the same way.
7.00 to 9.00

Consider next the compound `NC(=O)CCNC(=O)c1ccc(F)c(COc2cc(N)nc3[nH]nnc23)c1` in the same way.
7.00 to 9.00

Consider next the compound `COC(=O)c1ccc(F)c(COc2cc(N)nc3[nH]nnc23)c1` in the same way.
7.00 to 9.00

Consider next the compound Nc1cc(OCc2cc(C(=O)NC3CCS(=O)(=O)C3)ccc2Cl)c2nn[nH]c2n1 (stereo not shown) in the same way.
6.00 to 7.00

Consider next the compound `CS(=O)(=O)c1ccc(COc2cc(N)nc3[nH]nnc23)c([N+](=O)[O-])c1` in the same way.
6.00 to 7.00

Consider next the compound `Nc1cc(OCc2ccc(C(=O)NC3CC3)cc2Cl)c2nn[nH]c2n1` in the same way.
6.00 to 7.00

Consider next the compound CN1CCC(N(C)C(=O)c2ccc(F)c(COc3cc(N)nc4[nH]nnc34)c2)C1 (stereo not shown) in the same way.
6.00 to 7.00

Consider next the compound `Nc1cc(OCc2cc(C(=O)N3CC[C@@H](O)C3)ccc2F)c2nn[nH]c2n1` in the same way.
6.00 to 7.00

====

TARGET OR SYSTEM: myeloperoxidase (MPO) (Homo sapiens, UniProt P05164)
TEST: MPO peroxidation assay (Amplex Red assay)
Type: biochemical
RUN CONDITIONS: MPO peroxidation, potency range class; read-out: Amplex Red IC50
pIC50: −log10 of the molar value.
Exercise: state measured pIC50 for each of the compounds provided.

Consider the compound Nc1ccc(-c2ccc(COc3cc(N)nc4[nH]nnc34)c(OC(F)(F)F)c2)cn1 [Example 291] and give its measured pIC50.
7.00 to 9.00

Consider next the compound Nc1cc(OC(c2ccccc2)C(F)(F)F)c2nn[nH]c2n1 (stereo not drawn) [Example 126] in the same way.
6.00 to 7.00

Consider next the compound Nc1cc(OCc2cc(C(=O)N3CCCC3)ccc2F)c2nn[nH]c2n1 [Example 152] in the same way.
6.00 to 7.00

Consider next the compound Cn1nccc1-c1cccc(COc2cc(N)nc3[nH]nnc23)c1 [Example 78] in the same way.
7.00 to 9.00

Consider next the compound Nc1cc(OCc2cccc(OCc3ccccc3)c2)c2nn[nH]c2n1 [Example 2] in the same way.
7.00 to 9.00

Consider next the compound COc1ccc(-n2cnc(C)n2)cc1COc1cc(N)nc2[nH]nnc12 [Example 87] in the same way.
5.00 to 6.00

Consider next the compound Nc1cc(OCc2cc(C(=O)N3CCC[C@H]3CO)ccc2Cl)c2nn[nH]c2n1 [Example 179] in the same way.
6.00 to 7.00

Consider next the compound N#Cc1ccc(OC(F)F)cc1COc1cc(N)nc2[nH]nnc12 [Example 351] in the same way.
7.00 to 9.00

Consider next the compound Cc1ccn(-c2cccc(COc3cc(N)nc4[nH]nnc34)c2)n1 [Example 85] in the same way.
6.00 to 7.00

Consider next the compound Nc1cc(OCc2cc(C(=O)NCc3ccc[nH]c3=O)ccc2Cl)c2nn[nH]c2n1 [Example 192] in the same way.
7.00 to 9.00

Consider next the compound Nc1cc(OCc2ccc(F)cc2F)c2nn[nH]c2n1 [Example 130] in the same way.
7.00 to 9.00

Consider next the compound Nc1cc(OCc2cc(C(=O)Nc3nnc(C(F)(F)F)s3)ccc2F)c2nn[nH]c2n1 [Example 155] in the same way.
6.00 to 7.00

Consider next the compound Nc1cc(OCc2cc(C(=O)NC3CCC(O)CC3)ccc2F)c2nn[nH]c2n1 (stereo not drawn) [Example 163] in the same way.
6.00 to 7.00

Consider next the compound Nc1cc(OCc2ccc(-n3cnc(-c4ccccc4)c3)cc2OC(F)(F)F)c2nn[nH]c2n1 [Example 260] in the same way.
7.00 to 9.00

Consider next the compound Nc1cc(OCc2ccc(-n3cnc4ccccc43)cc2OC(F)(F)F)c2nn[nH]c2n1 [Example 261] in the same way.
6.00 to 7.00

Consider next the compound Nc1cc(OCc2ccc(-c3cccc(C(F)(F)F)c3)cc2)c2nn[nH]c2n1 [Example 120] in the same way.
6.00 to 7.00

Consider next the compound CS(=O)(=O)N1CCN(c2ccc(-c3ccc(COc4cc(N)nc5[nH]nnc45)c(OC(F)(F)F)c3)cn2)CC1 [Example 295] in the same way.
6.00 to 7.00

Consider next the compound Nc1cc(OCc2ccc(-n3cncn3)cc2OC(F)(F)F)c2nn[nH]c2n1 [Example 267] in the same way.
7.00 to 9.00

Consider next the compound Nc1cc(OCc2ccc3ccccc3c2)c2nn[nH]c2n1 [Example 147] in the same way.
6.00 to 7.00

Consider next the compound Nc1cc(OCc2ccccc2Oc2ccccc2)c2nn[nH]c2n1 [Example 38] in the same way.
7.00 to 9.00

Consider next the compound CCOc1ccccc1COc1cc(N)nc2[nH]nnc12 [Example 128] in the same way.
7.00 to 9.00
